ASSAYED_TARGET: Mannose-6-phosphate isomerase (Homo sapiens) (UniProt P34949)
Sequence (P34949 whole entry, looked up): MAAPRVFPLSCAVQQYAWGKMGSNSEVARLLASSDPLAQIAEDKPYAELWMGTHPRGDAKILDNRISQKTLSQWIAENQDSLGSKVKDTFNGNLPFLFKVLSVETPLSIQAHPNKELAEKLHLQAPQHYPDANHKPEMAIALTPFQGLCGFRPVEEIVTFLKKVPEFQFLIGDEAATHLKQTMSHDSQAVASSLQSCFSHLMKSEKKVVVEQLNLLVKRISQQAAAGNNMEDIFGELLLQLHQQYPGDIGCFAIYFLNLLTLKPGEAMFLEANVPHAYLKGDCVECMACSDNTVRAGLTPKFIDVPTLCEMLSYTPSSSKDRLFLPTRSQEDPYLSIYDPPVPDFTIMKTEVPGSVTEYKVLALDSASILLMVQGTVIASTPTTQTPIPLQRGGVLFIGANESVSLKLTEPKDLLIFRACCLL
ASSAY_TEXT: inhibitors of human PMI, primary screen, biochemical, fluorescence intensity, coupled assay (AID 1209);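 also: plate controls were DMSO vehicle for no effect and wells lacking substrate for full effect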
APPLIED_CONDITIONS: purified PMI enzyme, at 20 µM, hits give high values
In all, about 190,000 compounds went through this assay and about 810 (0.43%) were called active. Many of the other results were omitted from the sample, so actives are more common in it than they were.
Measured inhibition accompanies every entry in the list below.
PARAMETER: inhibition (%)

{"COMPOUND": "O=C1COc2ccc(C(=O)c3ccccc3C(=O)O)cc2N1", "PARAMETER": "inhibition", "READOUT_NUMBER": -8.8}
{"COMPOUND": "Cc1cc(Cl)ccc1N=C1N=C(N)c2ccccc21", "PARAMETER": "inhibition", "READOUT_NUMBER": 9.1}
{"COMPOUND": "Fc1ccc(F)c(C2=NNC(=Nc3ccccc3F)SC2)c1", "PARAMETER": "inhibition", "READOUT_NUMBER": 22.5}
{"COMPOUND": "CCOc1ccccc1N(C(=O)c1ccco1)C(C(=O)NC1CCCC1)c1cccnc1 (stereo unspecified)", "PARAMETER": "inhibition", "READOUT_NUMBER": 5.1}
{"COMPOUND": "CCOC(=O)c1cc(-c2ccccc2)sc1NC(=O)c1cc(OC)c(OC)c(OC)c1", "PARAMETER": "inhibition", "READOUT_NUMBER": 13}
{"COMPOUND": "Cc1cc(Cl)ccc1N=c1ssnc1Cl", "PARAMETER": "inhibition", "READOUT_NUMBER": 52.8}
{"COMPOUND": "CC(C)c1nc(SCC(=O)c2ccccc2)c2c(=O)n(C)c(=O)n(C)c2n1", "PARAMETER": "inhibition", "READOUT_NUMBER": 5.8}
{"COMPOUND": "Cc1cc(Cl)ccc1N=Cc1c(O)n(C)c(=O)n(C)c1=O", "PARAMETER": "inhibition", "READOUT_NUMBER": 9.5}
{"COMPOUND": "O=C1c2ccccc2C(=O)N1CCc1c[nH]c2ccc(O)cc12", "PARAMETER": "inhibition", "READOUT_NUMBER": 22.1}
{"COMPOUND": "Cc1cc(C(C)(C)C)c(O)c(C(C)(C)C)c1", "PARAMETER": "inhibition", "READOUT_NUMBER": 0}
{"COMPOUND": "COc1cc(/C=C2\\SC(c3ccc(C)cc3)=NC2=O)cc(OC)c1O", "PARAMETER": "inhibition", "READOUT_NUMBER": 26.7}

====

ASSAYED_TARGET: Mannose-6-phosphate isomerase (Homo sapiens) (UniProt P34949)
ASSAY_TEXT: inhibitors of human PMI, primary screen, biochemical, fluorescence intensity, coupled assay (AID 1209);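 also: plate controls were DMSO vehicle for no effect and wells lacking substrate for full effect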
APPLIED_CONDITIONS: purified PMI enzyme, at 20 µM, hits give high values
Hit rate of the full screen: of about 190,000 compounds, about 810 (0.43%) were called active. The list comes from a sample in which actives are over-represented; it also holds close analogues and randomly drawn compounds.
Label Yes when inhibition is at or above 20%; anything below gets No.

{"COMPOUND_STRUCTURE_STRING": "COc1ccc(N=c2sc3ccccc3n2C)cc1", "LABEL_VALUE": "No"}
{"COMPOUND_STRUCTURE_STRING": "Nc1ccc(N(CCO)CCO)cc1", "LABEL_VALUE": "No"}
{"COMPOUND_STRUCTURE_STRING": "CCOC(=O)c1sc(=S)n(-c2ccccc2OC)c1N", "LABEL_VALUE": "Yes"}
{"COMPOUND_STRUCTURE_STRING": "COc1cc(N=C2C(=O)N3c4c(cccc42)C(C)=CC3(C)C)cc(OC)c1", "LABEL_VALUE": "Yes"}
{"COMPOUND_STRUCTURE_STRING": "O=C(Nc1ccnc(-c2cccnc2)n1)c1ccc(F)cc1", "LABEL_VALUE": "No"}
{"COMPOUND_STRUCTURE_STRING": "O=c1/c(=C\\c2cccnc2)sc2nc3ccccc3n12", "LABEL_VALUE": "No"}
{"COMPOUND_STRUCTURE_STRING": "COC(=O)c1sc(=S)n(-c2cc(F)ccc2F)c1N", "LABEL_VALUE": "Yes"}
{"COMPOUND_STRUCTURE_STRING": "COC(=O)c1sc(=S)n(-c2cccc(Cl)c2)c1N", "LABEL_VALUE": "Yes"}
{"COMPOUND_STRUCTURE_STRING": "Cc1ccc(NC(=S)NNC(=O)Cn2nc(C(F)F)cc2C(F)F)cc1", "LABEL_VALUE": "No"}
{"COMPOUND_STRUCTURE_STRING": "OCCN(CCO)c1ccc(C(c2ccccc2Cl)c2ccc(N(CCO)CCO)cc2Cl)c(Cl)c1", "LABEL_VALUE": "Yes"}
{"COMPOUND_STRUCTURE_STRING": "CCOC(=O)c1sc(=S)n(-c2cc(F)ccc2F)c1N", "LABEL_VALUE": "Yes"}
{"COMPOUND_STRUCTURE_STRING": "CS(=O)(=O)N1CCN(c2ccc(NC(=O)CSc3nnc(-c4ccco4)o3)cc2)CC1", "LABEL_VALUE": "No"}
{"COMPOUND_STRUCTURE_STRING": "COc1ccc(Cl)cc1-n1c(N)c(C(N)=O)sc1=S", "LABEL_VALUE": "Yes"}
{"COMPOUND_STRUCTURE_STRING": "CCOC(=O)c1sc(=S)n(-c2ccccc2)c1N", "LABEL_VALUE": "No"}
{"COMPOUND_STRUCTURE_STRING": "COc1cc(-c2nnc(-c3cc(OC)c(OC)c(OC)c3)o2)cc(OC)c1OC", "LABEL_VALUE": "No"}
{"COMPOUND_STRUCTURE_STRING": "CN(C)c1ccc(NC(=O)Cn2ncn3c(cc4ccccc43)c2=O)cc1", "LABEL_VALUE": "Yes"}
{"COMPOUND_STRUCTURE_STRING": "COc1nc(/C(N)=N/O)nc(N2CCCCC2)n1", "LABEL_VALUE": "Yes"}
{"COMPOUND_STRUCTURE_STRING": "O=c1/c(=C/c2ccccn2)sc2nc3ccccc3n12", "LABEL_VALUE": "No"}
{"COMPOUND_STRUCTURE_STRING": "COc1ccc(OCC(=O)Nc2ncc3c(n2)CC(C)(C)CC3=O)cc1", "LABEL_VALUE": "No"}
{"COMPOUND_STRUCTURE_STRING": "COc1ccc(OC)c(-n2c(=S)[nH]c3c(sc(=S)n3-c3ccccc3)c2=O)c1", "LABEL_VALUE": "No"}
{"COMPOUND_STRUCTURE_STRING": "COc1ccccc1-n1c(=S)[nH]c2c(sc(=S)n2-c2ccccc2)c1=O", "LABEL_VALUE": "No"}
{"COMPOUND_STRUCTURE_STRING": "Cc1ccc(NC(=O)c2sc(=S)n(-c3cc(C)ccc3F)c2N)cc1", "LABEL_VALUE": "No"}
{"COMPOUND_STRUCTURE_STRING": "CCOC(=O)c1sc(=S)n(-c2cccc(OC)c2)c1N", "LABEL_VALUE": "Yes"}
{"COMPOUND_STRUCTURE_STRING": "COc1ccc(-n2c(=S)[nH]c3c(sc(=S)n3-c3ccccc3)c2=O)c(OC)c1", "LABEL_VALUE": "Yes"}

====

ASSAYED_TARGET: Mannose-6-phosphate isomerase (Homo sapiens)
ASSAY_TEXT: inhibitors of human PMI, primary screen, biochemical, fluorescence intensity, coupled assay (AID 1209);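 also: plate controls were DMSO vehicle for no effect and wells lacking substrate for full effect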
APPLIED_CONDITIONS: purified PMI enzyme, at 20 µM
The whole screen tested about 190,000 compounds, of which about 810 (0.43%) were called active. No stated cut-off is given here; in the data, active means inhibition above about 50%; inactive means the rest. Many of the other results were omitted from the sample, so actives are more common in it than they were.
Possible outcomes: active, inactive

{"COMPOUND": "C=CCn1c(NC(=O)CC)c(C(=O)OCC)sc1=S", "LABEL_VALUE": "inactive"}
{"COMPOUND": "CCN(CC)c1ccc(NC(=O)COc2ccccc2C#N)cc1S(=O)(=O)Nc1ccccc1OC", "LABEL_VALUE": "inactive"}
{"COMPOUND": "CC(NC(=O)COC(=O)c1ccco1)c1ccccc1 (stereo unspecified)", "LABEL_VALUE": "inactive"}
{"COMPOUND": "CCN(CC)c1ccc(NC(=O)c2ccccc2Br)cc1S(=O)(=O)Nc1ccccc1OC", "LABEL_VALUE": "active"}
{"COMPOUND": "CCOCc1nnc(NC(=O)CSc2ccccc2)s1", "LABEL_VALUE": "inactive"}
{"COMPOUND": "Cc1cccc(C)c1OCc1nnc(NC(=O)CSc2ccc(Cl)cc2)s1", "LABEL_VALUE": "inactive"}
{"COMPOUND": "CC(=O)c1cc2c(=O)c3cc(C)ccc3oc2nc1C", "LABEL_VALUE": "inactive"}
{"COMPOUND": "CCN(CC)c1ccc(NC(=O)c2ccc(=O)[nH]c2)cc1S(=O)(=O)Nc1ccccc1OC", "LABEL_VALUE": "active"}
{"COMPOUND": "O=C(CSc1ccccc1)Nc1nnc(COc2ccc(Cl)cc2)s1", "LABEL_VALUE": "active"}
{"COMPOUND": "Cc1ncc(C[n+]2csc(CCOC(=O)CC34CC5CC(CC(C5)C3)C4)c2C)c(N)n1", "LABEL_VALUE": "inactive"}
{"COMPOUND": "CCN(CC)c1ccc(NC(=O)COc2ccccc2C)cc1S(=O)(=O)Nc1ccccc1OC", "LABEL_VALUE": "inactive"}
{"COMPOUND": "O=C(Nc1cccc(S(=O)(=O)N2CCOCC2)c1)c1cn(-c2ccccc2)nc1-c1ccc(F)cc1", "LABEL_VALUE": "inactive"}
{"COMPOUND": "Cc1ccc(OCc2nnc(NC(=O)c3ccco3)s2)cc1", "LABEL_VALUE": "inactive"}
{"COMPOUND": "Nc1ccn(Cc2ccc(F)cc2)n1", "LABEL_VALUE": "inactive"}
{"COMPOUND": "O=C(Nc1nnc(COc2ccc(Cl)cc2)s1)c1ccco1", "LABEL_VALUE": "active"}
{"COMPOUND": "CCOC(=O)c1sc(NC(=O)c2ccc(Br)o2)cc1C", "LABEL_VALUE": "inactive"}
{"COMPOUND": "COc1ccccc1NS(=O)(=O)c1cc(NC(=O)c2ccc(=O)[nH]c2)ccc1N1CCOCC1", "LABEL_VALUE": "inactive"}
{"COMPOUND": "Cc1ccc(O)c(CNc2cccc3cccnc23)c1", "LABEL_VALUE": "inactive"}
{"COMPOUND": "COc1ccc(C(=O)Nc2ccc(Cl)c(S(=O)(=O)Nc3ccccc3OC)c2)cc1", "LABEL_VALUE": "inactive"}
{"COMPOUND": "Cc1ccc(Nc2c(F)c(F)c(F)c(F)c2C(=O)O)cc1", "LABEL_VALUE": "inactive"}
{"COMPOUND": "C=CCn1c(Cc2cccs2)nnc1SCC(=O)Nc1ccc(OC)c(OC)c1", "LABEL_VALUE": "inactive"}
{"COMPOUND": "CCn1c(=Nc2ccc(N3CCOCC3)cc2)ccc2ccccc21", "LABEL_VALUE": "inactive"}
{"COMPOUND": "Cc1cccnc1NCc1ccc(O)c2ncccc12", "LABEL_VALUE": "inactive"}
{"COMPOUND": "Cc1nnc(NC(=O)c2c(-c3ccccc3)noc2C)s1", "LABEL_VALUE": "inactive"}
{"COMPOUND": "O=C(COc1ccc(Cl)cc1)NCc1nnc(SCC(=O)N2CCCCCC2)o1", "LABEL_VALUE": "inactive"}
{"COMPOUND": "O=C(OCn1nnc2ccccc2c1=O)C1COc2ccccc2O1 (stereo unspecified)", "LABEL_VALUE": "inactive"}
{"COMPOUND": "Fc1ccc(-c2cc(C(F)(F)F)n3ncnc3n2)cc1", "LABEL_VALUE": "inactive"}
{"COMPOUND": "CCN(CC)c1ccc(NC(=O)c2ccccc2)cc1S(=O)(=O)Nc1ccccc1OC", "LABEL_VALUE": "inactive"}
{"COMPOUND": "CCC(C)(C)NC(=O)C(c1ccco1)N(C(=O)c1csnn1)c1cccc(F)c1 (stereo unspecified)", "LABEL_VALUE": "inactive"}
{"COMPOUND": "COc1cc(/C=N/NC(=O)c2ccncc2)ccc1OCCN1CCCCC1", "LABEL_VALUE": "inactive"}
{"COMPOUND": "Cc1cccc(NCc2ccccc2O)c1C", "LABEL_VALUE": "inactive"}
{"COMPOUND": "CN1CCC(N(C)C(=O)/C=C/c2cn(-c3ccccc3)nc2-c2cccs2)CC1", "LABEL_VALUE": "inactive"}
{"COMPOUND": "COc1cc(C(=O)Nc2ccc(C(C)=O)cc2)c(Br)c(OC)c1OC", "LABEL_VALUE": "inactive"}
{"COMPOUND": "Cc1cccc(NCc2ccc(O)c3ncccc23)c1C", "LABEL_VALUE": "active"}
{"COMPOUND": "COc1cc(/C=N/NC(=O)c2cc3ccccc3cc2O)ccc1OCCN1CCCCC1", "LABEL_VALUE": "active"}
{"COMPOUND": "Cn1c(N=Nc2ccc(N3CCOCC3)cc2)[n+](C)c2ccccc21", "LABEL_VALUE": "inactive"}
{"COMPOUND": "CCOC(=O)/C(C)=C1\\NC(C)(C)Cc2ccccc21", "LABEL_VALUE": "active"}
{"COMPOUND": "CCOC(=O)/C(C(=O)Nc1ccccc1Cl)=C1/NC(C)(C)Cc2ccccc21", "LABEL_VALUE": "inactive"}
{"COMPOUND": "O=[N+]([O-])c1ccc(Sc2n[nH]c(-c3ccccc3)n2)nc1", "LABEL_VALUE": "inactive"}
{"COMPOUND": "O=C(Nc1nnc(COc2ccccc2)s1)c1ccco1", "LABEL_VALUE": "inactive"}
{"COMPOUND": "Cn1c(=Nc2ccc(N3CCOCC3)cc2)ccc2ccccc21", "LABEL_VALUE": "active"}
{"COMPOUND": "Nc1cnn(Cc2ccccc2F)c1", "LABEL_VALUE": "inactive"}
{"COMPOUND": "CC(C)N1CCC2(CC1)N=C(c1ccc3c(c1)OCO3)CC(c1cc(Cl)ccc1O)N2 (stereo unspecified)", "LABEL_VALUE": "inactive"}
{"COMPOUND": "Cc1ccccc1N1C(=O)CSC1=C(C#N)C#N", "LABEL_VALUE": "inactive"}
{"COMPOUND": "COc1ccc(Cc2nnc(NC(=O)c3c(-c4ccccc4)noc3C)s2)cc1", "LABEL_VALUE": "inactive"}
{"COMPOUND": "COc1ccc(N=Nc2cnc(C)nc2-c2ccccc2)cc1", "LABEL_VALUE": "inactive"}
